- experimental-target: T1, HsLARP6(70-300) L187A (Homo sapiens, UniProt Q9BRS8 70-300, L187A)
- T1 sequence: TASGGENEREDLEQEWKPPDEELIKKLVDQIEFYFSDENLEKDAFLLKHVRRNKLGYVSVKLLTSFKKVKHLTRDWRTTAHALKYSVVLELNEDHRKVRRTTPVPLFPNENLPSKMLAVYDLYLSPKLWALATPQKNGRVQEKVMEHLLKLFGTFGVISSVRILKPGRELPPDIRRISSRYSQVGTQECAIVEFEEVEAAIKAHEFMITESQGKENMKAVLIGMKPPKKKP
- method-description: ITC; ITC: 20 mM Tris pH 7.25, 100 mM KCl, 5 mM MgCl2, 1 mM DTT, 298 K; protein titrated into RNA
- setup-conditions: protein: recombinant; tags: N-terminal His6 (TEV-cleavable); stem-loop with internal bulge
measured-parameter: pKd
Answers are plain numbers, as −log10 of the molar value.

In plain terms, CCACAAAGAGUCUACAUGUCUAGGGUCUAGACAUGUUCAGCUUUGUGG (structured_RNA) [48 nt RNA (collagen alpha1(I) 5' UTR SL)] has a documented pKd of 7.72
